src = the supplement of paper PMC9170038

# Test system: K4 kissing-loop RNA reporter;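 note: bound reporter read as fluorescence of individual clusters on recovered sequencing chips by microscopy, with normalized cluster intensities fitted with a binding model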
# test: apparent KD of K4 kissing-loop reporter; higher = weaker reporter binding
# particulars: Eterna round: R107; input ligand: theophylline 20 uM
Classification field: 1.0 = apparent KD of K4 kissing-loop reporter at or over 200 nM; 0.0 = apparent KD of K4 kissing-loop reporter under 200 nM.

Use these answered entries as a reference point.
# input-sequence, class-name
records = [
    ("AAGGCACGGCUUCGGCCGUGCCAAAUAGAUACCAGCAUAAUAAUAUGCCCUUGGCAGCUAAAUAUAAAUUCAGUGAUGUUGGAUA [SS Theo A Tesla 2.2]", 1.0),
    ("UAAGAAUAAGUAGCAGUGAUGUUGCUACUGCGAGGACCGGUACGGCCGCCACUCGAGUCCUCGAAACAUCACUGAACGAGGAAUA [whbob_SS_Tryp_A_m11]", 1.0),
    ("CGCAGUGAUGUUGCUAUUAUUCUUGGUUAACGAGGACCGGUACGGCCGCCACUCGAUUUCUGUCUAGUCCAGUGUUUUUUUGAGU [whbob_EX_Tryp_A_t7]", 1.0),
    ("GAUUAAUAAGAGGAUACCAGUACUAAUAAAGUACAUUAAUAGUAGAGUGAUGUUCUAUAGUACCCUUGGCAGCUUAGAGUAAGUU [#09 K4 Theophylline B Exclusion]", 1.0),
    ("AAAAUAAGCCAGUGAUGUUGGGAUCCAGAUACCAGCGACGAAAGUCGCCCUUGGCAGCUGUGGACGUACAAAAUAAGUACGUCCU", 1.0),
]

Is the recorded value of apparent KD of K4 kissing-loop reporter equal to or greater than 200 nM for this sequence? UCCACGCUUAGAGGAUAUCGGAUUAGAGUGAUGUUCUAAAGAAGCCCAGUGAUGUUGGAUGGUAUACGAGAAGGCUGUGGCGUGU [Same State FMN B GF 4]
1.0

Also UGUGUUUACCUGACUCAGUGAUGUUGAGAAGGAGCGUUCGAAAGAACAGGUAGGUCGCUCAACCUAAAUUCAGGUGAGCACUAAA ?
1.0

Also UUCGUAGUAGGAAACUAUUACGAAAAGGAAGGAGCGGCGAAGAAGCCAGGUAGGUCGCCUAUUGACAGUGAUGUUGUUAUGUAGA [#9] ?
1.0

Also CCGGACACCUCGGAUACCAGCCUGAGUGAUGUUCAAGCUGAACUCUCUUAAUAGGUCACCGGCCCUUGGCAGCCGCAUCCUAAGC [theeternabot_exclusion_KL_Theo_B_46] ?
1.0

Also AGCUUGGGUUCGGCCGCCACUCCACCCUUAGAAGUGAUGUUUCUCAUGCAUACGCGUCGUCAGAUGAGGACCGGGAAUGUAGUUG [theeternabot_exclusion_KL_Trp_B_24] ?
1.0

Also CGAGCGCGUGCGGCCGCCACUACUAUAAGUCGUCCAAGUUAGUGAUGUUGACUGAACGUCGGAAAUAGGACCGGGCAUAGUUUUA [theeternabot_sameState_KL_Trp_B_40] ?
1.0

Also UAACAGUCUACGGCCGCCACUGACAAUCGGCAAGCAACAUGUGGGUGCGUAGUGAUGUUACAUAUCAGGACCGGGUAAGACAAAU [theeternabot_sameState_KL_Trp_B_32] ?
1.0

Also UGGAUAUAGUUUAGUCUGGUGAGGUCAGAUACCAGACUAGCGAUAGUCCCUUGGCAGCUGAUUAUGAUUGAGUGAUGUUCAAUCG [Theo A Ex t9] ?
0.0

Also AGGUCUGCACGAAGGAGCGCCCUGACAGGUUGCUGCCGUGGGCAGUGAUGUUGCUCAGUCCGGCAGGUAGGUCGCGUGCAGACCU ?
0.0

Also UAGGCGGGAGAAGGAUAUCUGUGAAACCUGCUGCCCAAUAAGUGAUGUUUAUAAAGGAAGCGUCAUAGAGAAGGUCUAACAAGUA [theeternabot_sameState_KL_FMN_B_1] ?
1.0

Also UAGUCAUACAGAGGAUAUCGUAUGAGUGAUGUUCAUACGAUAUAAUCUAAUUGUAUAGAUGUUCGACGAGAAGGCUGUAUGACUA [FMN B Ex t1a] ?
0.0

Also CAUACGCAUGGAGGAUAUGAGAUUUCUCAUGUCAUUUAAUAUUCUCAGUGAUGUUGAGAAUUUGGCUCAGAAGGCCAUGUGUAUG [Ex FMN B 20] ?
1.0

Also UACGCUUACUUGCGCGGUCCGAUUAACGAUACCAGCGAAGAAGCCCGCCCUUGGCAGCGUUAUAGAGUGAUGUUCACGGAGAUUA [theeternabot_sameState_KL_Theo_A_12] ?
1.0

====

# Tested on: MS2 coat protein
# test: apparent KD of MS2 coat protein; designed switch direction (-1 OFF switch, 1 ON switch): 1; higher = weaker reporter binding
# particulars: input ligand: FMN 200 uM
Classification field: True = apparent KD of MS2 coat protein at or over 200 nM; False = apparent KD of MS2 coat protein under 200 nM.

Use these answered entries as a reference point.
# input-sequence, study-system, class-name
measured = [
    ("GUUACAUGAGGAUCACCCAUGUAUGUGUGGGAGUAAGUGACUUAGGAUAUCUAAUAUUUAAAUUAAGAGAAGGAAGAUUGUUGU [JMF's solution 5] (Eterna round: R96, puzzle: Same State NG 3)", "MS2 coat protein", "True"),
    ("UUACAGUGCGGGUAGGAUAUGUAGGGUGGUACAUGAGGAUCACCCAUGUAUCCACCCUUCGACCGGCAGAAGGGCCUGUCACUAC [Atarzale] (Eterna round: R96, puzzle: Same State 2)", "MS2 coat protein", "False"),
    ("GCCGCACAUGAGGAUCACCCAUGUAAUUACAUGGGAGGAUAUCAGUGCUCGAAAGAGCACUGAGAAGGCCUGAGGC [SS1 - Omei A v1] (Eterna round: R96, puzzle: Same State 1)", "MS2 coat protein", "True"),
]

Is the recorded value of apparent KD of MS2 coat protein equal to or greater than 200 nM for this sequence? GCUCGAUGAAUGUCCUACAUGAGGAUCACCCAUGUUCGUGGGCAGGAUAUUUACAUGCAGAGUGUAGAGAAGGGCCCAUCGAGC [SameState NG3 #63] (Eterna round: R96, puzzle: Same State NG 3)
False

Also CCGAUGCUUAUAAACAUGAGGAUCACCCAUGUGAGGACACAUGAGGAUAUGCAGGUCAAAGACUUGCAGAAGGCAUAGCGUCGG [JL SSNG3 3.89] (Eterna round: R96, puzzle: Same State NG 3) ?
False

Also UAUUUAAUCGUAGGAUAUAGAGUGAAAUUUGGACUAGAAGGACGUAACAUGAGGAUCACCCAUGUGGUAAGUGGGACACAGUGU [JR_SSNG1_Sub038] (Eterna round: R96, puzzle: Same State NG 1) ?
False

====

# Test system: MS2 coat protein
# test: apparent KD of MS2 coat protein; higher = weaker reporter binding
# particulars: Eterna round: R107; input ligand: arginine 13.2 mM
Field: apparent KD of MS2 coat protein. Provide a value for each of the sequences that follow.
Answers are plain numbers, in nM.

Here is how some sequences turned out for apparent KD of MS2 coat protein.
# input-sequence, study-system, apparent KD of MS2 coat protein [nM]
measured = [
    ("AUAAAUAAAACCGAUACCAGCCUUAUACAUGAGGAUCACCCAUGUUAUGCUUCCUUUUUUGGCCCUUGGCAGCGGAAAUGGGUAA [AstrosSSTheB#1]", "MS2 coat protein", 45.3),
    ("GGGUACAUCGCGGCCGCCACUCAUGUAAAUGCGUGAGGAUCACCCAUGCCGAUGGAGACAUCGGAGAGGACCGGGUGAUGUACCG", "MS2 coat protein", 27.9),
    ("CGCACAUGAGGAUCACCCAUGUGAGGGCGGCGAGGACCGGUACGGCCGCCACUCGCAAAACAUGAGGAUCACCCAUGUGCCGCCG [SSTA DOUBLE!!! :-D #2]", "MS2 coat protein", 30.1),
    ("UCACAUGAGGAUCACCCAUGUGUCAGAGAAGGAGCGGCCGCAAGGCCAGGUAGGUCGCUCGGGUAUUGUGAGGUUCACCCGUGUG [#1 Exclusion - Arginine A Attempt #12 (Inspired by cyborg)]", "MS2 coat protein", 26.7),
    ("AUAAGGUAUCUGCUAUCCUCAUGAGCAGAUACCAGCUAGGAAACUAGCCCUUGGCAGCUGCAACAUGAGGAUCACCCAUGUAAUA [(T)'-(M)'-(T1)-(T2)-(M1)-(M2)_Design1]", "MS2 coat protein", 64.4),
]

Dear colleague, could you send me apparent KD of MS2 coat protein for each of the items below? Thanks.
1. CAUAGCAAAAGUGAUACCAGAGUUCGAGGGAACAUGAGGAUCACCCAUGUGCUUGUACAACUCCCUUGGCAGCACAGAGCAAUUA [theeternabot_sameState_MS2_Theo_B_16]
2. CCCAGUCAUAACAAAGGAAAUAUACUCGAAGGAGCGUCAUAGUAGGCAGGUAGGUCGCGAGACAUGAGGAUCACCCAUGUAGAGA [swwvmullin]
3. UAGAUAGAGGGAAGGAGCGCAGUAACAUAACAUGAGGAUCACCCAUGUAAGAAAUUAAUAAUGCAGGUAGGUCGCCCAAGAUGAU [#10 Same State - Arginine B]
4. AACCGAGGCUAUCCUCUCCGACUAUGUGAUACCAGAAUAAUUUUAUUCCCUUGGCAGCAUGACAUGAGGAUCACCCAUGUCUCUU [SSTheo A #10]

1. 24.3
2. 21.5
3. 12.4
4. 16

Dear colleague, could you send me apparent KD of MS2 coat protein for each of the items below? Thanks.
1. AGCCAUGGAAACAUGGCGGCGGCAUGAGCGCGAGGACCGGUACGGCCGCCACUCGGGCAACAUGAGGAUCACCCAUGUUCCUCAU [ETA NP+V+V2 #20 +-Same Structure]
2. UGUACCAUGUCGGCCGCCACUCAUGAUAAGCAUGAGGAUCACCCAUGUAGCGUCAAAGACGCUAUGAGGACCGGGACAUGGUACU [TryBS Zipper 2]
3. UCAGGAAGAGCGGCCGCCACUGUUUGGCAUGCGGAUGAAGGAACAUGAGGAUCACCCAUGUAGAUUAGGACCGGGCUUGCGGAGA [szeemullin]

[62.5, 34.3, 20.9]
